Data provenance is patent US20110159022A1.

# tested.target: HLA-DR11 (DRB1*1101) (human)
# experiment.description: competition ELISA, tracer biotin-HA 306-318
observation.type: relative binding activity

Query AEWAWGPCTPSSKDC (also called MDK7) [MDK 38-52] yields relative binding activity of 923 IC50 ratio to reference peptide

Query RGFLLLTLLALLALT (synthetic 15-mer of the human midkine precursor; also called MDK2; peptide 4-18) [MDK 4-18] yields relative binding activity of 94 IC50 ratio to reference peptide

Query ETIRVTKPCTPKTKA (also called MDK18) [MDK 119-133] yields relative binding activity of 763 IC50 ratio to reference peptide

Query LTLLALLALTSAVAK (synthetic 15-mer of the human midkine precursor; also called MDK3; peptide 9-23) [MDK 9-23] yields relative binding activity of 0.3 IC50 ratio to reference peptide

New cases:
Query CNWKKEFGADCKYKF (also called MDK11) [MDK 74-88] yields relative binding activity of 1230 IC50 ratio to reference peptide

Query QTQRIRCRVPCNWKK (also called MDK9) [MDK 64-78] yields relative binding activity of 504 IC50 ratio to reference peptide

Query GTLKKARYNAQCQET (also called MDK16) [MDK 105-119] yields relative binding activity of 1010 IC50 ratio to reference peptide
